Target: human NTPDase1 (Homo sapiens)
Sequence (P49961 whole entry): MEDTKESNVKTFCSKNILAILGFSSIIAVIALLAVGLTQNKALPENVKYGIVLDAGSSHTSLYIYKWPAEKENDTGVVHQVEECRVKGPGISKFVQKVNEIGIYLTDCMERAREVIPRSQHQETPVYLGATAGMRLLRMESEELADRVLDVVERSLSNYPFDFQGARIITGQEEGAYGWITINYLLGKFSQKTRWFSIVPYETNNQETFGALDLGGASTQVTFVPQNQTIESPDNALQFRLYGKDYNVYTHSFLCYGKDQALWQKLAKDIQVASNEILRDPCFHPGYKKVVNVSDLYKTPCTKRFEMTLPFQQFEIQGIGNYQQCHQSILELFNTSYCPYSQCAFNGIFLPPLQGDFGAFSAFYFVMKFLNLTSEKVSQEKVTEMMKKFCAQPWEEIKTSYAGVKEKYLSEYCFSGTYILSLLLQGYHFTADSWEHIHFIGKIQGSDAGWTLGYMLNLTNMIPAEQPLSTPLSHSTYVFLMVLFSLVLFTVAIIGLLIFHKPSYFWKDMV
Test: Hydrolysis by NTPDase1
Type: biochemical
Details: 100 μM substrate; relative to ATP hydrolysis (100%)
Let's look at some compounds and their measured Relative activity of NTPDase1.

Sample records with Relative activity of NTPDase1:
>>> print(df.to_string())
                                   compound  value
0  CSc1nc(N)c2ncn([C@@H]3O[C@H](COP(=O)(O)OP(=O)(O)CP(=O)(O)O)[C@@H](O)[C@H]3O)c2n1   7–8%
1  [BH3-][P+](O)(OC[C@H]1O[C@@H](n2cnc3c(N)nc(SC)nc32)[C@H](O)[C@@H]1O)OP(=O)(O)CP(=O)(O)O (single isomer, unassigned) [4A]    <1%

Q: Which measured Relative activity of NTPDase1 value corresponds to [BH3-][P+](O)(OC[C@H]1O[C@@H](n2cnc3c(N)nc(SC)nc32)[C@H](O)[C@@H]1O)OP(=O)(O)CP(=O)(O)O (single isomer, unassigned) [4B] ?
A: <1%
